Origin of the recorded values: ChEMBL document CHEMBL1141332

# Lookup of reported CC50 keyed by entry
# Test system: KM12
# TEST DETAILS: Cytotoxicity against human KM12 cells
# Type: functional
# CONDITION PARAMETERS: read-out: Log LC50 (the source's name) (converted)
Write it as a number; the unit µM goes unstated.

Please review the following examples before continuing.
Form: molecule = CC(=O)O[C@@H]1C[C@H]2[C@]3(C)CC[C@H]4C(C)(C)CCC[C@]4(C)[C@H]3C[C@H](O)[C@]2(C)[C@@H](C=O)[C@@H]1C(C)=O [SCALARHERBACIN A] ; CC50 = 8.51

Form: molecule = `CC(=O)O[C@H]1C[C@H]2[C@@](C)(CC[C@H]3C(C)(C)CCC[C@@]32CO)[C@@H]2CC=C(C(C)=O)[C@H](C=O)[C@@]12C` ; CC50 = 4.57

Attention now turns to another entry.
Form: molecule = `CC(=O)C1=CC[C@H]2[C@]3(C)CC[C@H]4C(C)(C)CCC[C@]4(C(=O)O)[C@H]3CC(=O)[C@]2(C)[C@H]1C=O` ; CC50 = 21.4
